Target: T1, Nat1 (LTIITLE) (also: TFA salt)
T1 peptide: LTIITLE
Experiment: cell-based or functional assay
Non-standard residues stand in square brackets, D forms with d. No end group written: not given here.
measured-metric: IC50, Thiofiavin T aggregation assay (nM)
Numbers only, in nM.

Worked cases, answers included:
# binder, measurement-unit, IC50, Thiofiavin T aggregation assay
data = [
    ("IRIRRY", "nM", 205),
    ("WTIRTWH", "nM", 784),
    ("LRIYHHK", "nM", 152),
    ("IQIYRYK", "nM", 444),
]

Hi, could you look up IC50, Thiofiavin T aggregation assay for each item in my list?
1. IFVYHH
2. [dS][dH][dW][dR][dR][dH][dR] [shwrrhr]
3. [dK][dL][dK][dW][dQ][dW] [klkwqw]
4. IHIEIK

OUT:
703
338
7310
723
